experimental-target: Progesterone receptor (Gallus gallus) (UniProt P07812)
Sequence (P07812 whole entry, looked up): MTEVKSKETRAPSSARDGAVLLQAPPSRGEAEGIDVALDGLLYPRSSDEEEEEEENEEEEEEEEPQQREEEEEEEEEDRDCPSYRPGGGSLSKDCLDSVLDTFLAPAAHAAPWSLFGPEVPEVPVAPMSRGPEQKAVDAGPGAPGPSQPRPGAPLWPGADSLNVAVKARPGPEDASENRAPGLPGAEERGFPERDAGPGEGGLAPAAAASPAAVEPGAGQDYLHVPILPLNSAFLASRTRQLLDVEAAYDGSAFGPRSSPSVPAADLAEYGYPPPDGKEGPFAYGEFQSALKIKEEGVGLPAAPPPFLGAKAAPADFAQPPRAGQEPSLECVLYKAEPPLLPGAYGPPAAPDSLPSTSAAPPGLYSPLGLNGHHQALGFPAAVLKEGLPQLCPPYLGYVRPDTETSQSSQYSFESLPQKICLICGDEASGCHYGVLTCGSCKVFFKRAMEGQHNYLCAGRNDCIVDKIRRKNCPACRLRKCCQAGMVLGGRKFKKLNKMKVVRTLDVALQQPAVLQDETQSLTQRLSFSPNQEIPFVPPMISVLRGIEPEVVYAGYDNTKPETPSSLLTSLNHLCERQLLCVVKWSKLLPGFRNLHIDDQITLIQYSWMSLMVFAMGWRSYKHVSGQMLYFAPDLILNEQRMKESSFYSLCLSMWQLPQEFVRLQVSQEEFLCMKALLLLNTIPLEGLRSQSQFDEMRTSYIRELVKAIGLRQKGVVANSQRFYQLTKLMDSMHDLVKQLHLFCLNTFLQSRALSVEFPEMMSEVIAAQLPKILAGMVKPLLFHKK
pKd: −log10 of the molar value.

| compound | pKd |
| --- | --- |
| C#C[C@@H](O)C12CCCC1C1CCC3=CC(=O)CC[C@@H]3C1CC2 (stereo partly specified) | 6.80 |

Where these numbers come from: BindingDB's records for doi:10.1021/jm00375a008
